Target: Glutamine synthetase (Salmonella typhimurium (strain LT2 / SGSC1412 / ATCC 700720))
Sequence (P0A1P6 whole entry): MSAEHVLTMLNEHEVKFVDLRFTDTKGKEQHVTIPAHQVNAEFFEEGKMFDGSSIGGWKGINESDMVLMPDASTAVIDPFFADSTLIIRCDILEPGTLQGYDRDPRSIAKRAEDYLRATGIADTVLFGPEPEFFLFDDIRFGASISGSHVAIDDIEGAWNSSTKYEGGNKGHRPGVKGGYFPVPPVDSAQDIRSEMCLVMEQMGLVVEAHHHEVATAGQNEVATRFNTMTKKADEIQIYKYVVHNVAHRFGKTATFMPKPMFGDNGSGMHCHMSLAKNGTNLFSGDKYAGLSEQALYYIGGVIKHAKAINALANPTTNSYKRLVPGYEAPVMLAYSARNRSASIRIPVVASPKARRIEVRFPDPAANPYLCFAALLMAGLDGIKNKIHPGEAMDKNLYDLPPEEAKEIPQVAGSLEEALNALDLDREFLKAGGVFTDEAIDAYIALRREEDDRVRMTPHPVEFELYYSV
Test: Inhibition of Salmonella Typhimurium glutamine synthetase by transferase assay
value-type: pKi
Formally, pKi is defined as -log10 of the concentration c, with c in mol/L.

IN: Look up and report measured pKi for this entry: NC[C@H](O)CC[C@H](N)C(=O)O
OUT: 4.40

###

Biological target: Glutamine synthetase (Glycine max, UniProt Q43760)
Sequence (Q43760 whole entry): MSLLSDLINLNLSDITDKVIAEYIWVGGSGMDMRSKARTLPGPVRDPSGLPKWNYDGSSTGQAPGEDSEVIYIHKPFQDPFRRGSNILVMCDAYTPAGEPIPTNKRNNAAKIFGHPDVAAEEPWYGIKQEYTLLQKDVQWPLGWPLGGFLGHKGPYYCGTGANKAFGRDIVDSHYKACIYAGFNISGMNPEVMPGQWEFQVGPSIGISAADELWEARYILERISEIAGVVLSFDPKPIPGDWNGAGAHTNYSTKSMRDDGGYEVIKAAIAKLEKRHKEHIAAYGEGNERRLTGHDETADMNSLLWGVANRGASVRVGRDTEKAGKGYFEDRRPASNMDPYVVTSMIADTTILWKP
value-type: Ki (µM)
# output: bare number, implied unit µM

IN: Look up and report measured Ki for this entry: N[C@@H](CCNO)C(=O)O
OUT: 21

###

Tested on: Mycobacterium tuberculosis
Assay: Inhibition of Mycobacterium tuberculosis glutamine synthetase at 1 mM in DMSO
value-type: inhibition (%)
# output: bare number, implied unit %

IN: Look up and report measured inhibition for this entry: NC[C@H](O)CC[C@H](N)C(=O)O
OUT: 56

IN: Look up and report measured inhibition for this entry: NS(=O)(=O)c1ccc2[nH]c(=O)[nH]c2c1
OUT: 24

IN: Look up and report measured inhibition for this entry: O=C(O)c1cccc(NC(=O)c2nc[nH]n2)c1
OUT: 26

IN: Look up and report measured inhibition for this entry: CCOP(=O)(OCC)c1cccc(NCC(=O)O)c1
OUT: 42

###

Assay: Inhibition of Mycobacterium tuberculosis glutamine synthetase by transferase assay
Field: pIC50. Provide a value for each of the compounds that follow.
Formally, pIC50 is defined as -log10 of the concentration c, with c in mol/L.

IN: Look up and report measured pIC50 for this entry: CP(=O)(O)CCC(N)C(=O)O (racemic) [GLUFOSINATE]
OUT: 5.72

IN: Look up and report measured pIC50 for this entry: NC[C@H](O)CC[C@H](N)C(=O)O
OUT: 3.21

###

System: Mycobacterium tuberculosis
Conditions: at 1 mM
Description: Inhibition of Mycobacterium tuberculosis glutamine synthetase at 1 mM in water
value-type: inhibition (%)
# output: bare number, implied unit %

IN: Look up and report measured inhibition for this entry: CS(=O)(=O)CC[C@H](N)C(=O)O
OUT: 33

IN: Look up and report measured inhibition for this entry: N[C@@H](CCNO)C(=O)O
OUT: 26

IN: Look up and report measured inhibition for this entry: NS(=O)(=O)c1cccc(N[C@H](CO)C(=O)O)c1
OUT: 33

IN: Look up and report measured inhibition for this entry: C[S+]([O-])c1cccc(NCC(=O)O)c1 (configuration not stated)
OUT: 30

IN: Look up and report measured inhibition for this entry: C[S+]([O-])c1cccc(N[C@@H](CO)C(=O)O)c1 (some centres not stated)
OUT: 13

IN: Look up and report measured inhibition for this entry: O=C(O)CNc1ccc(O)c(S(=O)(=O)O)c1
OUT: 48

IN: Look up and report measured inhibition for this entry: NC[C@H](O)CC[C@H](N)C(=O)O
OUT: 58

###

Assay: Inhibition of sheep brain glutamine synthetase by transferase assay
Design: species or system Ovis aries
value-type: Ki (µM)
# output: bare number, implied unit µM

IN: Look up and report measured Ki for this entry: N[C@@H](CCNO)C(=O)O
OUT: 7
